Tested on: MALME-3M melanoma
method.notes: NCI tumour cell line growth inhibition, 48 h
value.type: TGI

Known TGI results, listed for orientation:
[[record]]
compound = "CC(C)C(Sc1nc(N)nc2nc[nH]c12)C(=O)O (stereo not given)"
value_type = "TGI"
test_result = "> 100 µM"

[[record]]
compound = "CCOC(=O)c1c(N2CCN(C)CC2)[nH]c(=O)c(C(c2c(Cl)cccc2Cl)c2c(O)c(C(=O)OCC)c(N3CCN(C)CC3)[nH]c2=O)c1O"
value_type = "TGI"
test_result = "41.5 µM"


Consider the compound shown here: COc1cc(O)c(C(=O)C2Cc3ccccc32)c(OC)c1 (stereo not given) What is its recorded TGI?
> 100 µM

Consider the compound shown here: `CCc1ccc([OH2+])c(C(=O)[O-])c1.CCc1ccc([OH2+])c(C(=O)[O-])c1.CCc1ccc([OH2+])c(C(=O)[O-])c1.CCc1ccc([OH2+])c(C(=O)[O-])c1.[Cu+2].[Cu+2]` What is its recorded TGI?
> 100 µM

Consider the compound shown here: `CCOC(=O)c1cccc(N=NNc2cccc(C(=O)OCC)c2)c1` What is its recorded TGI?
> 100 µM

###

Test system: MALME-3M melanoma
method.notes: NCI tumour cell line growth inhibition, 48 h
Examples of compounds with documented TGI follow.

[[record]]
compound = "COc1ccc(/C(=C(\\c2ccccc2)[N+](=O)[O-])c2ccc(OCCN3CCCC3)cc2)cc1"
value_type = "TGI"
test_result = "3.43 µM"

[[record]]
compound = "CC(=O)O[C@H]1CSC[C@@H](OC(C)=O)C1[N+](=O)[O-] (stereo not given in full)"
value_type = "TGI"
test_result = "41.6 µM"

[[record]]
compound = "O=S(c1ccc(O)cc1)c1ccc(O)cc1"
value_type = "TGI"
test_result = "> 100 µM"

[[record]]
compound = "COc1cc2c(c(O)c1OC)C(O)C1CCC(=O)N1C2c1ccc2c(c1)OCO2 (stereo not given)"
value_type = "TGI"
test_result = "> 100 µM"

[[record]]
compound = "Clc1ccc(Cc2nc3cc4ccccc4cc3[nH]2)cc1Cl"
value_type = "TGI"
test_result = "39.4 µM"

[[record]]
compound = "O=c1[nH]nc(-c2cccc([N+](=O)[O-])c2)[nH]1"
value_type = "TGI"
test_result = "> 100 µM"


Consider the compound shown here: N/N=C1/C(=O)N(c2ccc(Cl)cc2)C(=O)C(=O)C1c1nc2ccccc2s1 (stereo not given) What is its recorded TGI?
> 100 µM

Consider the compound shown here: COC1=CC(=O)[C@@]2(C)C(C)[C@H](c3ccccc3)[C@H]2C1=O (stereo not given in full) What is its recorded TGI?
> 100 µM

Consider the compound shown here: O=C(NCC(O)COc1ccccc1)c1ccccc1O (stereo not given) What is its recorded TGI?
> 100 µM

Consider the compound shown here: `O=C(O)COc1c(Cl)cc(Cl)c(C(c2c(Cl)cc(Cl)c(OCC(=O)O)c2Cl)C(Cl)(Cl)Cl)c1Cl` What is its recorded TGI?
76.7 µM

###

System: NCI-H522 lung
method.notes: NCI tumour cell line growth inhibition, 48 h
Examples of molecules with documented TGI follow.
// units = µM; emit number, no label

Known TGI results, listed for orientation:
[[record]]
molecule = "CC(=O)[CH-]C(=O)c1ccccc1.CC(=O)[CH-]C(=O)c1ccccc1.Cl.[O-]CCc1ccccn1.[O-]CCc1ccccn1.[Ti+4]"
units_symbol = "µM"
test_result = 70.6

[[record]]
molecule = "Cc1cnc(C(=O)Nc2nc3ccc(S(=O)(=O)Nc4ccc(C(C)(C)C)cc4)cc3[nH]2)cn1"
units_symbol = "µM"
test_result = 8.9

[[record]]
molecule = "CCOC(=O)CN(CC)C(=O)NC12CC3CC(CC(C3)C1)C2"
units_symbol = "µM"
test_result = 493


Param readout= TGI; system= NCI-H522 lung; entry= CC(NC(CC12CC3CC(CC(C3)C1)C2)C(N)=O)c1ccccc1 (stereo not given) ; returns value.
47.5

Param readout= TGI; system= NCI-H522 lung; entry= COc1cc2c(c3oc4c(O)cccc4c(=O)c13)CC(C(C)(O)CCl)O2 (stereo not given) ; returns value.
5.94

Param readout= TGI; system= NCI-H522 lung; entry= `CC[C@@]1(O)C(=O)OCc2c1cc1n(c2=O)Cc2c-1nc1ccc(N)cc1c2CC[Si](C)(C)C` ; returns value.
0.127

Param readout= TGI; system= NCI-H522 lung; entry= `c1c2c(cc3c1OCO3)-c1ncc3cc4c(cc3c1C2)OCO4` ; returns value.
72.2

Param readout= TGI; system= NCI-H522 lung; entry= C=C1C(=O)C23C(O)CC4C(C)(C)CCC(O)C4(C)C2CC(OC(C)=O)C1[C@H]3O (stereo not given in full) ; returns value.
0.638

Param readout= TGI; system= NCI-H522 lung; entry= COc1cc(/C=N/NC(=O)c2cnn3c2NC(c2ccccc2)C3)ccc1OCc1ccccc1 (stereo not given) ; returns value.
3.9

Param readout= TGI; system= NCI-H522 lung; entry= `COc1ccc(/C(=C(\c2ccccc2)[N+](=O)[O-])c2ccc(OCCN3CCCC3)cc2)cc1` ; returns value.
9.62

Source listed as PubChem BioAssay (NCI).
